- test: MTT cytotoxicity in N9 cells
- Assay type: cell-based, murine
- experimental context: mouse, N9 microglial cells, cytotoxic activity
outcome measure: IC20

> print(dat)
                         compound.structure  outcome.measure  value.measured
1  Cc1cc(C)c2c(Cn3cc(CCO[C@H]4O[C@@H]5O[C@@]6(C)CC[C@H]7[C@H](C)CC[C@@H]([C@H]4C)[C@@]57OO6)nn3)cc(=O)oc2c1             IC20         > 10 µM
2  Cc1ccc2c(Cn3cc(CCO[C@H]4O[C@@H]5O[C@@]6(C)CC[C@H]7[C@H](C)CC[C@@H]([C@H]4C)[C@@]57OO6)nn3)cc(=O)oc2c1             IC20         > 10 µM
3  C[C@H]1[C@@H](OCc2cn(Cc3cc4cc(Cl)cc(Cl)c4oc3=O)nn2)O[C@@H]2O[C@@]3(C)CC[C@H]4[C@H](C)CC[C@@H]1[C@@]24OO3             IC20         > 10 µM
4  C[C@H]1[C@@H](OCCn2cc(COc3cc(=O)oc4ccccc34)nn2)O[C@@H]2O[C@@]3(C)CC[C@H]4[C@H](C)CC[C@@H]1[C@@]24OO3             IC20         > 10 µM
5  Cc1cc(C)c2c(OCc3cn(CCO[C@H]4O[C@@H]5O[C@@]6(C)CC[C@H]7[C@H](C)CC[C@@H]([C@H]4C)[C@@]57OO6)nn3)cc(=O)oc2c1             IC20         7.13 µM
6  C[C@H]1[C@@H](OCCc2cn(Cc3cc4ccccc4oc3=O)nn2)O[C@@H]2O[C@@]3(C)CC[C@H]4[C@H](C)CC[C@@H]1[C@@]24OO3             IC20         > 10 µM
